This listing pairs compounds with measured pest or weed control at 80 g/ha.
# System: Abutilon theophrasti (ABUTH)
# ASSAY_PROCEDURE: Post-emergence herbicidal action, greenhouse pot trial
# Format: in vivo
# CONDITION_LABEL: Abutilon theophrasti, 504 h, 80 g/ha, visual rating after about 3 weeks, read-out: Post-emergence effect at 80 g/ha against ABUTH in %
# Procedure: Seeds of monocotyledonous and dicotyledonous weeds and crop plants are placed in sandy loam in plastic or organic planting pots, covered with soil and cultivated in a greenhouse under controlled growth conditions. 2 to 3 weeks after sowing, the trial plants are treated at the one-leaf stage. […]
Give the number; % is assumed, so skip it.

Task: Fetch value of pest or weed control at 80 g/ha on Abutilon theophrasti (ABUTH) for CCOC(=O)C(Oc1nn(-c2ncccc2F)c(-c2ccc(F)nc2)c1Br)SC (single isomer, unassigned) [Example I-28] .
Output: 80

Task: Fetch value of pest or weed control at 80 g/ha on Abutilon theophrasti (ABUTH) for CCOC(=O)C(Oc1nn(-c2ccccc2F)c(-c2ccc(F)nc2)c1C(F)(F)F)SC (centres unmarked) .
Output: 80

Task: Fetch value of pest or weed control at 80 g/ha on Abutilon theophrasti (ABUTH) for CSC(Oc1nn(-c2ncccc2F)c(-c2cncc(F)c2)c1Br)C(=O)O (centres unmarked) .
Output: 80

Task: Fetch value of pest or weed control at 80 g/ha on Abutilon theophrasti (ABUTH) for COC(=O)C(Oc1nn(-c2ncccc2F)c(-c2ccc(F)nc2)c1Cl)SC (centres unmarked) .
Output: 80

Task: Fetch value of pest or weed control at 80 g/ha on Abutilon theophrasti (ABUTH) for CCOC(=O)C(Oc1nn(-c2ncccc2F)c(-c2ccc(F)nc2)c1Br)SC (centres unmarked) [Example I-13] .
Output: 90

Task: Fetch value of pest or weed control at 80 g/ha on Abutilon theophrasti (ABUTH) for COC(=O)C(Oc1nn(-c2ncccc2F)c(-c2ccc(F)nc2)c1C1CC1)SC (centres unmarked) .
Output: 80

Task: Fetch value of pest or weed control at 80 g/ha on Abutilon theophrasti (ABUTH) for COC(=O)C(Oc1nn(-c2ncccc2F)c(-c2cncc(F)c2)c1C1CC1)SC (centres unmarked) .
Output: 80

Task: Fetch value of pest or weed control at 80 g/ha on Abutilon theophrasti (ABUTH) for CCOC(=O)C(Oc1nn(-c2ncccc2F)c(-c2cncc(F)c2)c1C1CC1)SC (centres unmarked) .
Output: 90

----------
# Test system: Viola tricolor (VIOTR)
# ASSAY_PROCEDURE: Post-emergence herbicidal action, greenhouse pot trial
# Type: in vivo
# CONDITION_LABEL: Viola tricolor, 504 h, 320 g/ha, read-out: Post-emergence effect against VIOTR
PROPERTY_NAME: pest or weed control at 320 g/ha (%)
Give the number; % is assumed, so skip it.

Past entries and their recorded results:
{"MOLECULE": "COC(=O)C(Oc1nn(-c2ncccc2F)c(-c2ccc(F)nc2)c1Cl)SC (centres unmarked) [Example I-56]", "PROPERTY_NAME": "pest or weed control at 320 g/ha", "UNIT_INFO": "%", "READOUT_NUMBER": 90}
{"MOLECULE": "CCOC(=O)C(Oc1nn(-c2ncccc2F)c(-c2ccc(F)nc2)c1Br)SC (single isomer, unassigned) [Example I-28]", "PROPERTY_NAME": "pest or weed control at 320 g/ha", "UNIT_INFO": "%", "READOUT_NUMBER": 90}
{"MOLECULE": "CSC(Oc1nn(-c2cc(F)ccc2F)c(-c2cncc(F)c2)c1Br)C(=O)O (centres unmarked) [Example I-06]", "PROPERTY_NAME": "pest or weed control at 320 g/ha", "UNIT_INFO": "%", "READOUT_NUMBER": 90}
{"MOLECULE": "CCOC(=O)C(Oc1nn(-c2ccccc2F)c(-c2ccc(F)nc2)c1Br)SC (centres unmarked) [Example I-01]", "PROPERTY_NAME": "pest or weed control at 320 g/ha", "UNIT_INFO": "%", "READOUT_NUMBER": 80}
{"MOLECULE": "COC(=O)C(Oc1nn(-c2ncccc2F)c(-c2ccc(F)nc2)c1Br)SC (single isomer, unassigned) [Example I-26]", "PROPERTY_NAME": "pest or weed control at 320 g/ha", "UNIT_INFO": "%", "READOUT_NUMBER": 90}

Task: Return pest or weed control at 320 g/ha (reported value) for this molecule: COC(=O)C(Oc1nn(-c2cc(F)ccc2F)c(-c2cncc(F)c2)c1Br)SC (centres unmarked) [Example I-07]
Output: 90

Task: Return pest or weed control at 320 g/ha (reported value) for this molecule: CSC(Oc1nn(-c2ncccc2F)c(-c2ccc(F)nc2)c1C1CC1)C(=O)O (centres unmarked) [Example I-33]
Output: 80

Task: Return pest or weed control at 320 g/ha (reported value) for this molecule: CCOC(=O)C(Oc1nn(-c2ncccc2F)c(-c2ccc(F)nc2)c1Cl)SC (centres unmarked) [Example I-19]
Output: 100

----------
This listing pairs compounds with measured Post-emergence effect against GLXMA (crop plant compatibility).
# System: Glycine max (GLXMA)
# ASSAY_PROCEDURE: Post-emergence crop plant compatibility, greenhouse pot trial
# Assay type: in vivo
# CONDITION_LABEL: 80 g/ha, in comparison to untreated controls
Give the number; % is assumed, so skip it.

Past entries and their recorded results:
{"COMPOUND": "CCOC(=O)C(Oc1nn(-c2ncccc2F)c(-c2ccc(Cl)cc2)c1Br)SC (centres unmarked)", "READOUT_NUMBER": 10}
{"COMPOUND": "CCOC(=O)C(Oc1nn(-c2ccc(Cl)cc2F)c(-c2ccc(F)cc2F)c1Br)SC (centres unmarked)", "READOUT_NUMBER": 0}
{"COMPOUND": "COC(=O)CCOC(=O)C(Oc1nn(-c2ccccc2F)c(-c2ccc(F)nc2)c1I)SC (centres unmarked)", "READOUT_NUMBER": 0}
{"COMPOUND": "COC(=O)C(C)COC(=O)C(Oc1nn(-c2ccccc2F)c(-c2ccc(F)nc2)c1I)SC (centres unmarked)", "READOUT_NUMBER": 0}

--- query ---
Task: Return Post-emergence effect against GLXMA (crop plant compatibility) (reported value) for this compound: CCOC(=O)C(Oc1nn(-c2cc(F)ccc2F)c(-c2cncc(F)c2)c1C1CC1)SC (centres unmarked)
Output: 10

----------
# System: Viola tricolor (VIOTR)
# ASSAY_PROCEDURE: Post-emergence herbicidal action, greenhouse pot trial
# Assay type: in vivo
# CONDITION_LABEL: Viola tricolor, 504 h, 80 g/ha, read-out: Post-emergence effect against VIOTR
PROPERTY_NAME: pest or weed control at 80 g/ha
Give the figure together with its unit, number first.

Past entries and their recorded results:
{"COMPOUND": "CCOC(=O)C(Oc1nn(-c2ncccc2F)c(-c2ccc(F)nc2)c1Cl)SC (centres unmarked)", "RESULT": "90%"}
{"COMPOUND": "COC(=O)C(Oc1nn(-c2ncccc2F)c(-c2ccc(F)nc2)c1Br)SC (single isomer, unassigned)", "RESULT": "90%"}

Task: Return pest or weed control at 80 g/ha (reported value) for this compound: COC(=O)C(Oc1nn(-c2ccccc2F)c(-c2ccc(F)nc2)c1Br)SC (centres unmarked)
Output: 80%

Task: Return pest or weed control at 80 g/ha (reported value) for this compound: CSC(Oc1nn(-c2cc(F)ccc2F)c(-c2cncc(F)c2)c1Br)C(=O)O (centres unmarked)
Output: 80%

Task: Return pest or weed control at 80 g/ha (reported value) for this compound: CCOC(=O)C(Oc1nn(-c2ncccc2F)c(-c2ccc(F)nc2)c1I)SC (centres unmarked)
Output: 90%

----------
# Tested on: Viola tricolor (VIOTR)
# ASSAY_PROCEDURE: Post-emergence herbicidal action, greenhouse pot trial
# Type: in vivo
# CONDITION_LABEL: 80 g/ha
PROPERTY_NAME: Post-emergence effect against VIOTR (%)
Give the number; % is assumed, so skip it.

Past entries and their recorded results:
{"COMPOUND": "COC(=O)CCOC(=O)C(Oc1nn(-c2ncccc2F)c(-c2cncc(F)c2)c1Br)SC (stereo not shown)", "Post-emergence effect against VIOTR / %": 90}
{"COMPOUND": "COC(=O)CCOC(=O)C(Oc1nn(-c2ncccc2F)c(-c2ccc(F)nc2)c1Br)SC (single isomer, unassigned) [Example I-22]", "Post-emergence effect against VIOTR / %": 90}
{"COMPOUND": "COC(=O)C(C)COC(=O)C(Oc1nn(-c2ccccc2F)c(-c2ccc(F)nc2)c1I)SC (stereo not shown)", "Post-emergence effect against VIOTR / %": 80}

--- query ---
Task: Return Post-emergence effect against VIOTR (reported value) for this compound: COC(=O)C(Oc1nn(-c2ncccc2F)c(-c2ccc(F)nc2)c1Br)SC (single isomer, unassigned)
Output: 80

The reported numbers originate from patent US20250026724A1.
